B1: IFRG15 (parent)
chain: INRADYCPECYPDNPANRSLVLPW

- Variants of: B1
- METHOD: protein stability index of a GFP-peptide fusion (GPS, HEK-293T) (PSI 1-6); higher = more stable;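 also: lentivirally expressed fusions sorted by FACS into six bins by GFP to DsRed ratio, PSI derived from sequencing read proportions per bin multiplied by bin number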
- ASSAY_CONDITIONS: c terminus: a fixed tail appended
REPORTED_PROPERTY: protein stability index

Here's what some known entries look like.
P15D: 2.12
N2L: 1.79
L22A: 2.69
C10H: 2.6
Y6C: 2.67

I am curious: what protein stability index value has been reported for `V21S` ?
1.97

Input `N2H`
1.84

Input `W24Y`
2.12

Input `P8R`
1.99

Input `L22I`
1.72
